- TARGET: human JAK1 (aa 850-1154) (Homo sapiens, UniProt P23458)
- Construct: human JAK1 (aa 850-1154); GST (N)
- Sequence (P23458 850-1154): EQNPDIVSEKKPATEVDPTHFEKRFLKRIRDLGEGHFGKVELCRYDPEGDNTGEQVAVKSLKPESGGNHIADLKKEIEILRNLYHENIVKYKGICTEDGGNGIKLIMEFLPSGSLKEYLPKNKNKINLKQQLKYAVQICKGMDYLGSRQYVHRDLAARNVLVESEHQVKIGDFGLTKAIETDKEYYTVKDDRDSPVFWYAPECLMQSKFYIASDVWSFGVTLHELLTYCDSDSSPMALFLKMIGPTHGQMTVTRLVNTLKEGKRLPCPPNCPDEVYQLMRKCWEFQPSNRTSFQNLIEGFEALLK
- EXPERIMENT DESCRIPTION: In vitro JAK kinase assay (TR-FRET), JAK1
- CONDITION NOTES: catalytic domain GST-fusion; ATP 3 μM; poly (GT)-Biotin 60 nM; 30 minutes at room temperature
pIC50: −log10 of the molar value.
PROPERTY: pIC50

compound="Cc1cc2ncc(-c3ccc[nH]c3=O)n2nc1N[C@@H](C)c1ccc(F)cn1 [Example 9]" result="> 7.00"
compound="C[C@@H](Nc1ccc2ncc(-c3ccc[nH]c3=O)n2n1)c1ccc(F)cn1 [Example 4]" result="6.00 to 7.00"
compound="N#CCC(=O)N1CCC[C@@H](Nc2ccc3ncc(-c4ccc[nH]c4=O)n3n2)C1 [Example 1]" result="> 7.00"
compound="C[C@H](Nc1ccc2ncc(-c3cc(Cl)c[nH]c3=O)n2n1)c1ccc(F)cn1 [Example 8]" result="> 7.00"
compound="C[C@H](Nc1ccc2ncc(-c3ccc[nH]c3=O)n2n1)c1ncc(F)cn1 [Example 5]" result="> 7.00"
compound="C[C@H](Nc1ccc2ncc(-c3ccn[nH]c3=O)n2n1)c1ccccc1 [Example 6]" result="6.00 to 7.00"
compound="C[C@H](Nc1ccc2ncn(-c3cc(Cl)c[nH]c3=O)c2n1)c1ccc(F)cn1 [Example 13]" result="> 7.00"
